Target: human ether-à-go-go-related gene (hERG) potassium channel (human, UniProt Q12809)
Sequence (Q12809 whole entry, looked up): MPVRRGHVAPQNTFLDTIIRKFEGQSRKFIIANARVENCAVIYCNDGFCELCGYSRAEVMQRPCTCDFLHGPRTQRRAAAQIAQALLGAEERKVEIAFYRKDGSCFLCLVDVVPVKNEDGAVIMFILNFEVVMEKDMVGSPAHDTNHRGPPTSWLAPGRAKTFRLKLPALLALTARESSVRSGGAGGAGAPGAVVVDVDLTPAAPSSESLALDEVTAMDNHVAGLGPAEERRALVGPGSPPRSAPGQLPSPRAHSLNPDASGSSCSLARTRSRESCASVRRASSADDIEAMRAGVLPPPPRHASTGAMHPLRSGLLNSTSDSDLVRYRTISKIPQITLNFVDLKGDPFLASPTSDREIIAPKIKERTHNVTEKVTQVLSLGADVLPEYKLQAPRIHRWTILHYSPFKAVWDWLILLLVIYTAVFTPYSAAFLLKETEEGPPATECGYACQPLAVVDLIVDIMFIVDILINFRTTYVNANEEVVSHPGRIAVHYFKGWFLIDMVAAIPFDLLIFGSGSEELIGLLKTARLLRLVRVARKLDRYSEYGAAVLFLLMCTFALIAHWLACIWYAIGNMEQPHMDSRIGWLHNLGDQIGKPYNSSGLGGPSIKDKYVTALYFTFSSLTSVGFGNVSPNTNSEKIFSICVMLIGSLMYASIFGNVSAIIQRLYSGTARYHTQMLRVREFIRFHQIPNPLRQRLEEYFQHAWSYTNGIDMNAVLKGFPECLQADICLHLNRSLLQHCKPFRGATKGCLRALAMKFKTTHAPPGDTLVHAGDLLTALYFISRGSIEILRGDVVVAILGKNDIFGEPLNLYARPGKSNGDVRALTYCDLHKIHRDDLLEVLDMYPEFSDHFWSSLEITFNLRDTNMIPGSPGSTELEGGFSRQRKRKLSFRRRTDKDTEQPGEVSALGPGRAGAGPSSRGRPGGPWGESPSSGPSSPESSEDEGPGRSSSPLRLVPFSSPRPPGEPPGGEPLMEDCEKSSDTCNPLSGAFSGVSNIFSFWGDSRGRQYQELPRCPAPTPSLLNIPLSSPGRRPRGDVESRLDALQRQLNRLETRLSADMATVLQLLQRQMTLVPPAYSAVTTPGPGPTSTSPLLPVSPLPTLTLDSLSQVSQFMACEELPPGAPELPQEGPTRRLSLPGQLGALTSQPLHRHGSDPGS
Assay: primary screen, population patch clamp on CHO cells stably expressing hERG; higher = less effect of the substance
About 14,000 (4.5%) of roughly 310,000 compounds showed an effect of 50% or more. Effects have a minus sign here. Shown is part of a subset that was picked to be rich in strong results.
measurement name: hERG current change (%, negative = inhibition) at 10uM
# answer = value followed by unit

Solved cases (8 shown):
O=S(=O)(Nc1cccnc1)c1ccc(F)cc1	16.6%
COc1ccc(Br)cc1C(=O)Nc1ccccc1N1CCN(C(=O)c2ccccc2)CC1	-52.4%
O=C(Nc1ccccc1N1CCCC1)c1ccc(Cl)cc1Cl	8.88%
Cn1c(SCC(=O)N2CCOCC2)nc2c(c1=O)SCC2	15.8%
CC(C)CC(=O)Nc1ccccc1N1CCN(C(=O)c2ccccc2)CC1	-17.7%
CCCC(=O)Nc1ccccc1N1CCN(C(=O)c2ccccc2)CC1	-46%
CCOn1c(=O)c(=O)n(OC)c2ccccc21	-6.73%
O=C(CNC(=O)c1[nH]cnc1C(=O)N[C@@H](Cc1ccccc1)C(=O)OCc1ccccc1)OCc1ccccc1	7.48%

Problem: What hERG current change (%, negative = inhibition) at 10uM value was documented for this molecule, COc1ccc(C(=O)Nc2ccccc2N2CCN(C(=O)c3ccccc3)CC2)cc1Br ?
Solution: -8.68%

Problem: What hERG current change (%, negative = inhibition) at 10uM value was documented for this molecule, O=C(CNC(=O)c1ccc(Br)o1)NCc1ccccc1 ?
Solution: 6.66%

---

Target: human ether-à-go-go-related gene (hERG) potassium channel (human, UniProt Q12809)
Experiment: primary screen, population patch clamp on CHO cells stably expressing hERG; higher = less effect of the substance
Out of some 310,000 compounds screened, about 14,000 (4.5%) showed an effect of 50% or more. The effect is printed as a negative number. What follows is part of a selection rich in strong results, with near analogues and random picks from the rest.
measurement name: hERG current change (%, negative = inhibition) at 10uM (%)
// units = %; emit number, no label

Cc1nnc(SCC(=O)NNC(=O)CC#N)[nH]c1=O	-7.01
COc1ccc2c(c1)[C@H]1[C@H](CO2)[C@H](c2ccccc2)[C@]2(C)C(=O)N(CC3CCCO3)CC(=O)N12 (stereo partly shown)	-2.94

Problem: Give human ether-à-go-go-related gene (hERG) potassium channel (human, UniProt Q12809) hERG current change (%, negative = inhibition) at 10uM for Cc1ccccc1C(=O)NC(=S)Nc1ccccc1[N+](=O)[O-]
Solution: 18.1

Problem: Give human ether-à-go-go-related gene (hERG) potassium channel (human, UniProt Q12809) hERG current change (%, negative = inhibition) at 10uM for Cc1ccsc1C(=O)NCc1ccc(Cl)cc1
Solution: 11.1

Problem: Give human ether-à-go-go-related gene (hERG) potassium channel (human, UniProt Q12809) hERG current change (%, negative = inhibition) at 10uM for COCCNC(=O)COc1ccc(C)c(C)c1
Solution: 3.36

Problem: Give human ether-à-go-go-related gene (hERG) potassium channel (human, UniProt Q12809) hERG current change (%, negative = inhibition) at 10uM for CCOC(=O)C1CCN(C(=O)Cn2cnc3sc(C)c(S(=O)(=O)N4CCC(C)CC4)c3c2=O)CC1
Solution: -67.9

Problem: Give human ether-à-go-go-related gene (hERG) potassium channel (human, UniProt Q12809) hERG current change (%, negative = inhibition) at 10uM for COc1ccc(-c2cn3cc(C(F)(F)F)cc(Cl)c3n2)cc1
Solution: 9.73

Problem: Give human ether-à-go-go-related gene (hERG) potassium channel (human, UniProt Q12809) hERG current change (%, negative = inhibition) at 10uM for COc1ccc(N2CCN(C(=O)Cn3cnc4sc(C)c(S(=O)(=O)N5CCOCC5)c4c3=O)CC2)cc1
Solution: -20.7

Problem: Give human ether-à-go-go-related gene (hERG) potassium channel (human, UniProt Q12809) hERG current change (%, negative = inhibition) at 10uM for CN(C)S(=O)(=O)c1ccc(C(=O)N2CC(=O)Nc3ccc(F)cc3C2c2ccc(F)cc2)cc1 (stereo not shown)
Solution: -21

Problem: Give human ether-à-go-go-related gene (hERG) potassium channel (human, UniProt Q12809) hERG current change (%, negative = inhibition) at 10uM for COC(=O)CSc1ncnc2c(C)csc12
Solution: 3.11

---

Target: human ether-à-go-go-related gene (hERG) potassium channel (human);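 also: peak tail current of the secondary pulse compared with the same well before compound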
Assay: primary screen, population patch clamp on CHO cells stably expressing hERG; higher = less effect of the substance
Hit rate of the full screen: of about 310,000 compounds, about 14,000 (4.5%) showed an effect of 50% or more. Effects have a minus sign here. Only a selection was taken, and strong results are over-represented in it overall.
Listing of entries alongside the reported hERG current change (%, negative = inhibition) at 10uM.
// units = %; emit number, no label

Solved cases (4 shown):
COc1ccccc1NC(=O)/C(=C\c1cccnc1)NC(=O)c1ccccc1	-65.5
CS(=O)(=O)Nc1ccccc1C(=O)NCC1(N2CCCCC2)CCCCC1	-8.32
Cc1ccc(C(=O)N/C(=C/c2cccnc2)C(=O)O)cc1	8.41
O=C(Nc1ccccc1)/C(=C/c1cccnc1)NC(=O)c1ccccc1	2.08

Then this compound:
Problem: What hERG current change (%, negative = inhibition) at 10uM value was documented for this compound, COc1ccccc1NC(=O)/C(=C/c1ccncc1)NC(=O)c1ccccc1 ?
Solution: -10.6

---

Target: human ether-à-go-go-related gene (hERG) potassium channel (human, UniProt Q12809);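 also: peak tail current of the secondary pulse compared with the same well before compound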
Assay: primary screen, population patch clamp on CHO cells stably expressing hERG; higher = less effect of the substance
Out of some 310,000 compounds screened, about 14,000 (4.5%) showed an effect of 50% or more. Effects have a minus sign here. For the sample, strong results were picked, then their nearest neighbours and some compounds at random.
Listing of entries alongside the reported hERG current change (%, negative = inhibition) at 10uM.
# answer = value followed by unit

Solved cases (4 shown):
COc1ccccc1C(=O)Nc1ccnn1C1CCN(C(=O)c2cnsn2)CC1	-62.2%
COc1ccccc1C(=O)Nc1ccnn1C1CCN(C(=O)c2ccoc2)CC1	-47.4%
COc1ccc(C(=O)Nc2ccnn2C2CCN(C(=O)c3cnsn3)CC2)cc1	-11.5%
Cc1ccccc1C(=O)Nc1ccnn1C1CCN(C(=O)c2cnsn2)CC1	-30.4%

Then this molecule:
Problem: What hERG current change (%, negative = inhibition) at 10uM value was documented for this molecule, COCC(=O)N1CCC(n2nccc2NC(=O)c2ccccc2OC)CC1 ?
Solution: -1.85%

---

Target: human ether-à-go-go-related gene (hERG) potassium channel (human, UniProt Q12809);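 also: peak tail current of the secondary pulse compared with the same well before compound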
Assay: primary screen, population patch clamp on CHO cells stably expressing hERG; higher = less effect of the substance
Screen size: about 310,000 compounds; about 14,000 (4.5%) showed an effect of 50% or more. Effects have a minus sign here. This is one part of a sample in which strong results are shown more often than they occur.
Listing of entries alongside the reported hERG current change (%, negative = inhibition) at 10uM.
// units = %; emit number, no label

Problem: What hERG current change (%, negative = inhibition) at 10uM value was documented for this compound, Cl.OC(COCc1ccccc1)CN1CCN(Cc2ccc3c(c2)OCO3)CC1 (stereo not shown) ?
Solution: -45

Problem: What hERG current change (%, negative = inhibition) at 10uM value was documented for this compound, CCCCNC(=O)C1CCN(S(=O)(=O)c2ccc3c(c2)CC(C)N3C(=O)C2CC2)CC1 (stereo not shown) ?
Solution: 1.16

Problem: What hERG current change (%, negative = inhibition) at 10uM value was documented for this compound, Cl.OCCN1CCN(CC(O)COc2ccc3c(c2)OCO3)CC1 (stereo not shown) ?
Solution: 12.7

---

Target: human ether-à-go-go-related gene (hERG) potassium channel (human);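 also: peak tail current of the secondary pulse compared with the same well before compound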
Test: primary screen, population patch clamp on CHO cells stably expressing hERG; higher = less effect of the substance
Out of some 310,000 compounds screened, about 14,000 (4.5%) showed an effect of 50% or more. Effects have a minus sign here. The entries come from a sample that favours strong results as a whole.
Listing of entries alongside the reported hERG current change (%, negative = inhibition) at 10uM.
// units = %; emit number, no label

COc1ccccc1NC(=S)N1CCN(Cc2ccc3c(c2)OCO3)CC1	-1.31
CC(=O)N1CCc2cc(S(=O)(=O)NC(C(=O)Nc3nc(C)cs3)C(C)C)ccc21 (stereo not drawn)	8.38
Cc1ccc(Nc2nc(N)nc(CN3CCCCCC3)n2)c(C)c1	-45.8
COc1ccc2c(c1)[nH]c1c(=O)n(CCN(C)C)cnc12	-34.1

Problem: What hERG current change (%, negative = inhibition) at 10uM value was documented for this molecule, COCCCN(CC(=O)O)S(=O)(=O)c1cccc(Cl)c1 ?
Solution: 16.3

Problem: What hERG current change (%, negative = inhibition) at 10uM value was documented for this molecule, COc1ccccc1NC(=O)CCC(=O)O ?
Solution: 23.4
